Test system: vancomycin-resistant E. faecalis (VRE) 342B
experiment-summary: In vitro antienterococcal activity, microtitration broth MIC
Assay type: cell-based, Enterococcus faecalis
condition-label: 24 h, read-out: MIC VRE1
endpoint: MIC (µM)

As a guide, the following entries are already answered.
>>> obs_value("O=C(/C=C/c1ccc(Cl)c(Cl)c1)Nc1cc(C(F)(F)F)cc(C(F)(F)F)c1")
9.34
>>> obs_value("O=C(/C=C/c1ccc(Cl)c(Cl)c1)Nc1ccc(C(F)(F)F)cc1")
11.1
>>> obs_value("O=C(/C=C/c1ccc(Cl)c(Cl)c1)Nc1ccc(OC(F)(F)F)cc1")
21.3

(a) O=C(/C=C/c1ccc(Cl)c(Cl)c1)Nc1cccc(C(F)(F)F)c1
(b) O=C(/C=C/c1ccc(Cl)cc1)Nc1cc(C(F)(F)F)cc(C(F)(F)F)c1
Request: Could you tell me which of these two has the smaller MIC figure? First: a Second: b Reply briefly: the label of your chosen item.
Response: a
(a: 22.2 µM, b: 650 µM)

====

Test system: methicillin-resistant S. aureus SA 630
experiment-summary: In vitro antistaphylococcal activity, microtitration broth MIC
Assay type: cell-based
condition-label: Staphylococcus aureus, 24 h; MRSA SA 630; read-out: log(1/MIC [M]) MRSA2 (converted)
endpoint: MIC (M)

>>> obs_value("O=C(/C=C/c1ccc(Cl)cc1)Nc1cc(C(F)(F)F)cc(C(F)(F)F)c1")
"3.16e-07"
>>> obs_value("O=C(/C=C/c1ccc(Cl)c(Cl)c1)Nc1ccc(C(F)(F)F)cc1")
"3.72e-07"
>>> obs_value("O=C(/C=C/c1ccc(Cl)c(Cl)c1)Nc1ccc(OC(F)(F)F)cc1")
"1.32e-06"

(1) O=C(/C=C/c1ccc(Cl)c(Cl)c1)Nc1cccc(C(F)(F)F)c1
(2) O=C(/C=C/c1ccc(Cl)cc1)Nc1cccc(C(F)(F)F)c1
(3) O=C(/C=C/c1ccc(Cl)cc1)Nc1cc(Cl)cc(Cl)c1
(4) O=C(/C=C/c1ccc(Cl)c(Cl)c1)Nc1cc(C(F)(F)F)cc(C(F)(F)F)c1
Request: Ranking field: MIC; order: falling. Record the ranking as a list of labels in the requested order.
Response: 2, 1, 3, 4
(2: 3.09e-06 M, 1: 1.38e-06 M, 3: 3.8e-07 M, 4: 1.35e-07 M)

====

experiment-summary: Lipophilicity determination by RP-HPLC (log k, log D)
Type: physicochemical
condition-label: MeOH 72%/H2O 28%
endpoint: log k

>>> obs_value("O=C(/C=C/c1ccc(Cl)cc1)Nc1cc(F)cc(F)c1 [1m]")
0.8054
>>> obs_value("O=C(/C=C/c1ccc(Cl)c(Cl)c1)Nc1cccc(Cl)c1 [2f]")
0.7404
>>> obs_value("O=C(/C=C/c1ccc(Cl)c(Cl)c1)Nc1ccc(OC(F)(F)F)cc1 [2k]")
1.0513
>>> obs_value("O=C(/C=C/c1ccc(Cl)c(Cl)c1)Nc1ccc(OC(F)(F)F)cc1Br [2r]")
1.2065
>>> obs_value("O=C(/C=C/c1ccc(Cl)c(Cl)c1)Nc1ccccc1 [2a]")
0.6199

(P) O=C(/C=C/c1ccc(Cl)cc1)Nc1ccccc1F [1b]
(Q) O=C(/C=C/c1ccc(Cl)c(Cl)c1)Nc1cc(Cl)ccc1Cl [2o]
Request: Hey, which is lower on measured log k, P or Q ? Answer by stating the label of the chosen item.
Response: P

(a) O=C(/C=C/c1ccc(Cl)cc1)Nc1cccc(C(F)(F)F)c1 [1i]
(b) O=C(/C=C/c1ccc(Cl)c(Cl)c1)Nc1cc(Cl)cc(Cl)c1 [2p]
Request: Smaller log k value, a vs b ? Response format: the label of the selected entry.
Response: a
(a: 0.8612, b: 1.3043)

(a) O=C(/C=C/c1ccc(Cl)c(Cl)c1)Nc1ccc(Cl)cc1 [2g]
(b) O=C(/C=C/c1ccc(Cl)c(Cl)c1)Nc1ccc(C(F)(F)F)cc1 [2j]
Request: Returns the identifier with the smallest measured log k among a and b . Pick one; state its label.
Response: a
(a: 0.6786, b: 1.0364)

(1) O=C(/C=C/c1ccc(Cl)c(Cl)c1)Nc1cc(F)cc(F)c1 [2m]
(2) O=C(/C=C/c1ccc(Cl)cc1)Nc1cccc(Cl)c1 [1f]
Request: Which one would you say has the larger log k value: 1 , or 2 ? Bench note: the answer is the label of the chosen record.
Response: 1

====

System: porcine monocyte-derived macrophages (MDM)
experiment-summary: In vitro cell viability, CCK-8
Assay type: cell-based
condition-label: Sus scrofa, Macrophage; 10% fetal bovine serum, 24 h; read-out: IC50 MDM 10% FSB
endpoint: IC50

Request: In one line, give reported IC50 of the entry O=C(/C=C/c1ccc(Cl)c(Cl)c1)Nc1ccc(C(F)(F)F)cc1 .
Response: > 10 µM

Request: Please indicate IC50 recorded for O=C(/C=C/c1ccc(Cl)c(Cl)c1)Nc1ccccc1
Response: > 10 µM

Request: Supply measured IC50 of O=C(/C=C/c1ccc(Cl)cc1)Nc1cccc(C(F)(F)F)c1 in your reply.
Response: > 10 µM

====

experiment-summary: Lipophilicity determination by RP-HPLC (log k, log D)
Type: physicochemical
condition-label: MeOH 72%/acetate buffered saline pH 6.5
endpoint: log D6.5

(A) O=C(/C=C/c1ccc(Cl)cc1)Nc1ccc(F)cc1 [1d]
(B) O=C(/C=C/c1ccc(Cl)c(Cl)c1)Nc1cc(C(F)(F)F)cc(C(F)(F)F)c1 [2q]
(C) O=C(/C=C/c1ccc(Cl)c(Cl)c1)Nc1ccc(C(F)(F)F)cc1 [2j]
(D) O=C(/C=C/c1ccc(Cl)cc1)Nc1ccccc1 [1a]
Request: Highest log D6.5 first, then in falling order down to the smallest. I'd appreciate it if you listed the labels in the requested order.
Response: B, C, A, D
(B: 1.4967, C: 1.0370, A: 0.7252, D: 0.4428)

(1) O=C(/C=C/c1ccc(Cl)cc1)Nc1ccc(OC(F)(F)F)cc1 [1k]
(2) O=C(/C=C/c1ccc(Cl)cc1)Nc1ccc(F)cc1F [1l]
(3) O=C(/C=C/c1ccc(Cl)c(Cl)c1)Nc1cc(Cl)cc(Cl)c1 [2p]
Request: Arrange the 3 molecules by rising log D6.5, starting with the smallest. Output spec: labels arranged per the requested ranking.
Response: 2, 1, 3

(P) O=C(/C=C/c1ccc(Cl)c(Cl)c1)Nc1ccccc1C(F)(F)F [2h]
(Q) O=C(/C=C/c1ccc(Cl)cc1)Nc1cc(Cl)cc(Cl)c1 [1p]
(R) O=C(/C=C/c1ccc(Cl)cc1)Nc1ccccc1Cl [1e]
Request: Order each entry by recorded log D6.5, climbing from the minimum. List the labels, following the order given in the request.
Response: R, P, Q

(P) O=C(/C=C/c1ccc(Cl)cc1)Nc1cccc(F)c1 [1c]
(Q) O=C(/C=C/c1ccc(Cl)c(Cl)c1)Nc1ccc(Cl)cc1Cl [2n]
(R) O=C(/C=C/c1ccc(Cl)cc1)Nc1ccc(Cl)cc1 [1g]
Request: Sort entries by log D6.5 from minimum to maximum value. Write the labels, ordered according to the request.
Response: R, P, Q
(R: 0.5012, P: 0.7296, Q: 1.0985)

(I) O=C(/C=C/c1ccc(Cl)c(Cl)c1)Nc1ccccc1 [2a]
(II) O=C(/C=C/c1ccc(Cl)c(Cl)c1)Nc1cc(Cl)ccc1Cl [2o]
Request: Kindly compare I with II and tell me which has the lower log D6.5 figure. Pick one and reply with its label.
Response: I

(1) O=C(/C=C/c1ccc(Cl)c(Cl)c1)Nc1ccc(F)cc1 [2d]
(2) O=C(/C=C/c1ccc(Cl)cc1)Nc1ccccc1C(F)(F)F [1h]
Request: Of the two listed items, which has the higher log D6.5? First: 1 Second: 2 Kindly give the label for the entry you pick.
Response: 1

====

Tested on: Mycobacterium smegmatis ATCC 700084
experiment-summary: In vitro antimycobacterial activity, broth dilution MIC
Format: cell-based
condition-label: Mycolicibacterium smegmatis, ATCC700084; M. smegmatis ATCC 700084; read-out: log(1/MIC [M]) MS (converted)
endpoint: MIC (M)

>>> obs_value("CO[C@H]1/C=C/O[C@@]2(C)Oc3c(C)c(O)c4c(O)c(c(/C=N/N5CCN(C)CC5)c(O)c4c3C2=O)NC(=O)/C(C)=C\\C=C\\[C@H](C)[C@H](O)[C@@H](C)[C@@H](O)[C@@H](C)[C@H](OC(C)=O)[C@@H]1C [RIF, rifampicin, reference compound]")
"1.95e-05"

(1) O=C(/C=C/c1ccc(Cl)c(Cl)c1)Nc1ccccc1 [2a]
(2) O=C(/C=C/c1ccc(Cl)c(Cl)c1)Nc1cccc(C(F)(F)F)c1 [2i]
(3) O=C(/C=C/c1ccc(Cl)cc1)Nc1cc(Cl)cc(Cl)c1 [1p]
(4) O=C(/C=C/c1ccc(Cl)c(Cl)c1)Nc1ccc(C(F)(F)F)cc1 [2j]
Request: # desc sort on MIC across 4 compounds Answer by naming the labels in the order asked.
Response: 3, 1, 2, 4
(3: 2.45e-05 M, 1: 1.38e-05 M, 2: 5.5e-06 M, 4: 2.75e-06 M)
